# TARGET ENTITY: ppGalNAc-T3 (Homo sapiens)
# Sequence (Q14435 whole entry): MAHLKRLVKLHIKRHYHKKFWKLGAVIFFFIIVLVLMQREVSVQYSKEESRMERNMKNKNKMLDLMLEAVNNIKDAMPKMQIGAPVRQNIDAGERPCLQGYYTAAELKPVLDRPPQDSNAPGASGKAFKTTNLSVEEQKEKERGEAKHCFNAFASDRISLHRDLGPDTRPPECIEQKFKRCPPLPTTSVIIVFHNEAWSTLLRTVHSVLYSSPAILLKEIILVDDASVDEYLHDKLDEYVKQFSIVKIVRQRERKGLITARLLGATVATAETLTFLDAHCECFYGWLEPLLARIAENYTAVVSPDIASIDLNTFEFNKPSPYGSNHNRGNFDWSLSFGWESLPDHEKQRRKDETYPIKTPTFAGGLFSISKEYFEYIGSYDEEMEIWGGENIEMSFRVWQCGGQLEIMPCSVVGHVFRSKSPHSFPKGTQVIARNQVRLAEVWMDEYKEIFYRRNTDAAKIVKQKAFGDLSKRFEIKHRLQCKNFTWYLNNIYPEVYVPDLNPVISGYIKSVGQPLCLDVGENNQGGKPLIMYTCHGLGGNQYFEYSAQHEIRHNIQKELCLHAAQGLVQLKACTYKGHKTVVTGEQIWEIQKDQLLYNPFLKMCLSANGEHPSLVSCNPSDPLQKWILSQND
EXPERIMENTAL ENDPOINT: pIC50
Schema: pIC50 number; meaning minus log10 of the concentration expressed in molar units.

Request: pIC50, test system ppGalNAc-T3 (Homo sapiens), entry "O=C(Nc1ccc(Nc2ccncc2)cc1)c1ccc(Nc2ccnc3ccccc23)cc1" 4.92

###

# TARGET ENTITY: purified ppGalNAc-T3 (Homo sapiens)
# Sequence (Q14435 38-633 limits assumed): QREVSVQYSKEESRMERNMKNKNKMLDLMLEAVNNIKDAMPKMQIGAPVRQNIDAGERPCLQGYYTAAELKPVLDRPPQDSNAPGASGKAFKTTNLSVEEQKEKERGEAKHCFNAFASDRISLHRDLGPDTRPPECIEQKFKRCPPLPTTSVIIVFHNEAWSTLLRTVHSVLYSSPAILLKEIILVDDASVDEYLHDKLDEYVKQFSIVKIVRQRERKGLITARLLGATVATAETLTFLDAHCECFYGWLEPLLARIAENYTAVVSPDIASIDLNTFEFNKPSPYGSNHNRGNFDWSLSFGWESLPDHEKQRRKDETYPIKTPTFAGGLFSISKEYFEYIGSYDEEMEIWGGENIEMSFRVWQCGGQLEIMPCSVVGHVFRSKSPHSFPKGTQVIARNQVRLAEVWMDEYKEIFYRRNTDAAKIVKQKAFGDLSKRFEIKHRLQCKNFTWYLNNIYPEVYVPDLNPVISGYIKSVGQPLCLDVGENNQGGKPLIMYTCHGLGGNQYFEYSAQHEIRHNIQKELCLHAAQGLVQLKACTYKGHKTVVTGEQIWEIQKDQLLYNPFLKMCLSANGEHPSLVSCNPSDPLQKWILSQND
EXPERIMENTAL ENDPOINT: IC50 (µM)
The reply should contain only the number, in µM.

Request: IC50, test system purified ppGalNAc-T3 (Homo sapiens), entry O=C(Nc1ccc(Nc2ccncc2)cc1)c1ccc(Nc2ccnc3ccccc23)cc1 [Compound T3Inh-1] 7
